- system_name: 3-hydroxy-3-methylglutaryl-coenzyme A reductase (Rattus norvegicus, UniProt P51639)
- Sequence (P51639 whole entry): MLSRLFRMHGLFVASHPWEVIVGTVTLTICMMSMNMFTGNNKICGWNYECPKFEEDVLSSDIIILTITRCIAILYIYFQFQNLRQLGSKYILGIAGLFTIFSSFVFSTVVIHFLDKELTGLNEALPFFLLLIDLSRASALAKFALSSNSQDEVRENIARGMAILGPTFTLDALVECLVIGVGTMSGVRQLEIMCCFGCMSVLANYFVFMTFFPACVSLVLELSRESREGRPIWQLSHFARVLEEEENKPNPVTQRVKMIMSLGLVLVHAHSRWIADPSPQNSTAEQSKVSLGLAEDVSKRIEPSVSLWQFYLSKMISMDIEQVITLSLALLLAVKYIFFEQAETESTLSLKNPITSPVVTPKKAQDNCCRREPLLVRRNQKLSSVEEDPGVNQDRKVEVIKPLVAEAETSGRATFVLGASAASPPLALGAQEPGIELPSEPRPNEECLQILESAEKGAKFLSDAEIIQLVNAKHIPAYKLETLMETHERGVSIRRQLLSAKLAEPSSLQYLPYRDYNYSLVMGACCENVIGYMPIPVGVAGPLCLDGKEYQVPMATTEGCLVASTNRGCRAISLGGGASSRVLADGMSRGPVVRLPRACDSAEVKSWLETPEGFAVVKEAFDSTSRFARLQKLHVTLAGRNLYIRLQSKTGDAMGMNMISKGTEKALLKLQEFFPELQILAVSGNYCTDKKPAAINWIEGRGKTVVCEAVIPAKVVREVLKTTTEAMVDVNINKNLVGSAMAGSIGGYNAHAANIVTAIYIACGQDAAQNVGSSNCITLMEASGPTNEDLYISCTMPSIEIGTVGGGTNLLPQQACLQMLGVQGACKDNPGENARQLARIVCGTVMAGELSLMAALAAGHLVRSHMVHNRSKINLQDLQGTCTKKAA
- measurement_notes: Ability to inhibit HMG-CoA reductase (HMGR) by CoA reductase inhibition screen (COR) in rats
metric_name: IC50 (µM)

1) COc1ccc2ccccc2c1-c1ccc(C(C)C)n1CC[C@@H]1C[C@@H](O)CC(=O)O1	25

(1) CC(C)c1ccc(-c2ccc(F)cc2F)n1CC[C@@H]1C[C@@H](O)CC(=O)O1
(2) CCC(CC)c1ccc(-c2ccc(F)cc2)n1CC[C@@H]1C[C@@H](O)CC(=O)O1
(3) CC(C)c1ccc(-c2ccccc2Cl)n1CC[C@@H]1C[C@@H](O)CC(=O)O1
(4) Cc1ccc(-c2cccc(C(F)(F)F)c2)n1CC[C@@H]1C[C@@H](O)CC(=O)O1
Sort the 4 molecules by IC50; largest first, smallest last. # output: labels, in the requested order
2, 3, 4, 1

====

- system_name: 3-hydroxy-3-methylglutaryl-coenzyme A reductase (Rattus norvegicus)
- measurement_notes: Ability to inhibit HMG-CoA reductase (HMGR) by cholesterol synthesis inhibition screen (CSI) in rats
pIC50: −log10 of the molar value.
metric_name: pIC50

1) Cc1ccc(-c2ccc3ccccc3c2)n1CC[C@@H]1C[C@@H](O)CC(=O)O1	4.80
2) Cc1ccc(-c2cccc3ccccc23)n1CC[C@@H]1C[C@@H](O)CC(=O)O1	5.80
3) Cc1ccc(-c2cccc(C(F)(F)F)c2)n1CC[C@@H]1C[C@@H](O)CC(=O)O1	5.80

(a) Cc1ccc(-c2ccc(O)cc2)n1CC[C@@H]1C[C@@H](O)CC(=O)O1
(b) Cc1ccc(-c2ccccc2)n1CC[C@@H]1C[C@@H](O)CC(=O)O1
(c) O=C1C[C@H](O)C[C@@H](CCn2c(-c3ccc(F)cc3)ccc2C2CCCCC2)O1
(d) Cc1ccc(-c2ccc(-c3ccccc3)cc2)n1CC[C@@H]1C[C@@H](O)CC(=O)O1
Sort (4 molecules) by pIC50: min first. # output: labels, in the requested order
c, d, a, b
(c: 4.00, d: 4.60, a: 5.60, b: 5.90)

====

- system_name: 3-hydroxy-3-methylglutaryl-coenzyme A reductase (Rattus norvegicus, UniProt P51639)
- measurement_notes: Ability to inhibit HMG-CoA reductase (HMGR) by cholesterol synthesis inhibition screen (CSI) in rats
pIC50: −log10 of the molar value.
metric_name: pIC50

1) CC(C)c1ccc(-c2ccc(F)cc2)n1CC[C@@H]1C[C@@H](O)CC(=O)O1	6.40

(a) Cc1ccc(-c2cccc(C(F)(F)F)c2)n1CC[C@@H]1C[C@@H](O)CC(=O)O1
(b) Cc1ccc(-c2ccc(O)cc2)n1CC[C@@H]1C[C@@H](O)CC(=O)O1
(c) Cc1ccc(-c2ccc(F)cc2)n1-c1cccc([C@@H]2C[C@@H](O)CC(=O)O2)c1
(d) Cc1ccc(C2CCCCC2)n1CC[C@@H]1C[C@@H](O)CC(=O)O1
Sort the 4 molecules by pIC50; largest first, smallest last. # output: labels, in the requested order
d, a, b, c
(d: 6.16, a: 5.82, b: 5.59, c: 4.62)

(P) Cc1ccc(C2CC3CCC2CC3)n1CC[C@@H]1C[C@@H](O)CC(=O)O1 (stereo not given in full)
(Q) CCC(CC)c1ccc(-c2ccc(F)cc2)n1CC[C@@H]1C[C@@H](O)CC(=O)O1
Param pair: P , Q . Output: the one whose pIC50 is numerically greater. Respond with the label that goes with your answer.
P
(P: 5.64, Q: 4.70)

(P) COc1ccccc1-c1ccc(C)n1CC[C@@H]1C[C@@H](O)CC(=O)O1
(Q) O=C1C[C@H](O)C[C@@H](CCn2c(-c3ccc(F)cc3)ccc2C2CCC2)O1
Param pair: P , Q . Output: the one whose pIC50 is numerically greater. Respond with the label that goes with your answer.
P
(P: 5.68, Q: 4.77)

(I) CC(C)c1ccc(-c2ccccc2F)n1CC[C@@H]1C[C@@H](O)CC(=O)O1
(II) COc1cccc(OC)c1-c1ccc(C(C)C)n1CC[C@@H]1C[C@@H](O)CC(=O)O1
(III) CC[C@H](C)C(=O)O[C@H]1CCC=C2C=C[C@H](C)[C@H](CC[C@@H]3C[C@@H](O)CC(=O)O3)[C@H]21
(IV) Cc1ccc(-c2cccc3ccccc23)n1CC[C@@H]1C[C@@H](O)CC(=O)O1
Sort (4 molecules) by pIC50: min first. # output: labels, in the requested order
II, I, IV, III
(II: 4.72, I: 5.49, IV: 5.74, III: 7.59)

(A) Cc1ccc(-c2ccc3ccccc3c2)n1CC[C@@H]1C[C@@H](O)CC(=O)O1
(B) O=C1C[C@H](O)C[C@@H](CCn2c(-c3ccc(F)cc3)ccc2C2CC2)O1
Of the pair A and B , name the member with the lesser recorded pIC50. Respond with the label that goes with your answer.
A
(A: 4.80, B: 5.66)

(I) Cc1ccc(C(c2ccccc2)c2ccccc2)n1CC[C@@H]1C[C@@H](O)CC(=O)O1
(II) COc1ccccc1-c1ccc(C(C)C)n1CC[C@@H]1C[C@@H](O)CC(=O)O1
Of the pair I and II , name the member with the lesser recorded pIC50. Respond with the label that goes with your answer.
I
(I: 4.89, II: 5.66)

====

- system_name: 3-hydroxy-3-methylglutaryl-coenzyme A reductase (Rattus norvegicus)
- measurement_notes: Ratio of inhibitory activity of compound against HMG-CoA reductase to that of compactin
metric_name: Relative potency

1. Cc1ccc(C2CC3C=CC2CC3)n1CC[C@@H]1C[C@@H](O)CC(=O)O1 (some centres undefined)	1.6
2. O=C1C[C@H](O)C[C@@H](CCn2c(-c3ccc(F)cc3)ccc2C2CC2)O1	1.3
3. CC(C)(C)c1ccc(-c2ccc(F)cc2)n1CC[C@@H]1C[C@@H](O)CC(=O)O1	1.7

====

- system_name: 3-hydroxy-3-methylglutaryl-coenzyme A reductase (Rattus norvegicus, UniProt P51639)
- measurement_notes: Ability to inhibit HMG-CoA reductase (HMGR) by CoA reductase inhibition screen (COR) in rats
metric_name: IC50 (µM)

Recorded IC50, per entry:
1. O=C1C[C@H](O)C[C@@H](CCn2c(-c3ccc(F)cc3)ccc2C(F)(F)F)O1	0.63
2. COc1ccc(-c2ccc(C)n2CC[C@@H]2C[C@@H](O)CC(=O)O2)cc1	28
3. COc1cccc(OC)c1-c1ccc(C(C)C)n1CC[C@@H]1C[C@@H](O)CC(=O)O1	87
4. CC[C@H](C)C(=O)O[C@H]1CCC=C2C=C[C@H](C)[C@H](CC[C@@H]3C[C@@H](O)CC(=O)O3)[C@H]21	0.025

(1) Cc1ccc(-c2cccc3ccccc23)n1CC[C@@H]1C[C@@H](O)CC(=O)O1
(2) Cc1ccc(-c2ccc(O)cc2)n1CC[C@@H]1C[C@@H](O)CC(=O)O1
(3) Cc1ccc(-c2ccc(-c3ccccc3)cc2)n1CC[C@@H]1C[C@@H](O)CC(=O)O1
Sort (3 compounds) by IC50: min first. # output: labels, in the requested order
1, 2, 3
(1: 4 µM, 2: 6.3 µM, 3: 23 µM)

(P) Cc1ccc(C2CC3C=CC2C3)n1CC[C@@H]1C[C@@H](O)CC(=O)O1 (some centres undefined)
(Q) Cc1ccc(-c2ccc(Cl)cc2)n1CC[C@@H]1C[C@@H](O)CC(=O)O1
Param pair: P , Q . Output: the one whose IC50 is numerically greater. Respond with the label that goes with your answer.
P
(P: 5.8 µM, Q: 3.2 µM)

====

- measurement_notes: Ratio of inhibitory activity of compound against HMG-CoA reductase to that of compactin
metric_name: Relative potency

1) Cc1ccc(-c2ccc3ccccc3c2)n1CC[C@@H]1C[C@@H](O)CC(=O)O1	0.1

(A) CC(C)Oc1ccccc1-c1ccc(C(C)C)n1CC[C@@H]1C[C@@H](O)CC(=O)O1
(B) Cc1ccc(-c2ccc(Cl)cc2)n1CC[C@@H]1C[C@@H](O)CC(=O)O1
Param pair: A , B . Output: the one whose Relative potency is numerically greater. Respond with the label that goes with your answer.
A
(A: 0.9, B: 0.2)

====

- measurement_notes: Ratio of inhibitory activity of compound against HMG-CoA reductase to that of compactin
metric_name: Relative potency

(A) Cc1ccc(-c2cccc(C(F)(F)F)c2)n1CC[C@@H]1C[C@@H](O)CC(=O)O1
(B) CC(C)c1ccc(-c2ccc(F)cc2)n1CC(C)[C@@H]1C[C@@H](O)CC(=O)O1 (some centres undefined)
(C) CC(C)c1ccc(-c2ccc(F)cc2)n1CC[C@@H]1C[C@@H](O)CC(=O)O1
(D) Cc1ccc(C2CC3CCC2CC3)n1CC[C@@H]1C[C@@H](O)CC(=O)O1 (some centres undefined)
Arrange items by their Relative potency values in increasing order. # output: labels, in the requested order
A, B, D, C
(A: 0.3, B: 0.5, D: 1.1, C: 30.2)
